target: human P2X3 receptors (Homo sapiens); construct: expressed in transfected cells; test: Whole-cell patch-clamp concentration-activation, HEK293 cells stably expressing hP2X3; assay type: cell-based; conditions: hP2X3, relative to ATP
Sequence (P56373 whole entry): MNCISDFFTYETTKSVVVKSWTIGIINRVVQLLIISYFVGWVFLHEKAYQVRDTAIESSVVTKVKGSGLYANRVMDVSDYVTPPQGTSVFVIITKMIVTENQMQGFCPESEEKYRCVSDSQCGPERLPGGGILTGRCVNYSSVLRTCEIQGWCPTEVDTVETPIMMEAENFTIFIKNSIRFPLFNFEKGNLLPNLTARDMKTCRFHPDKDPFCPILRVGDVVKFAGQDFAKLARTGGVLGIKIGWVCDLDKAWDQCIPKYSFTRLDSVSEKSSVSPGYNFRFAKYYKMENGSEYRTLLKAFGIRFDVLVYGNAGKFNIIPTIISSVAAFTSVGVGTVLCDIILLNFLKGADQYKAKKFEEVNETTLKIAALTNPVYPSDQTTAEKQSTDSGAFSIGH
Experimental Endpoint: Effect (Fold in ATP Potency) (fold)

As a guide, the following entries are already answered.
(Q) Which Effect (Fold in ATP Potency) reading was recorded for the compound COCC[N+]1=C(C=CC=C2N(CCCCCC(=O)NCCCCCCSc3nc(N)c4ncn(C5OC(COP(=O)(O)OP(=O)(O)OP(=O)(O)O)C(O)C5O)c4n3)c3ccc(S(=O)(=O)O)cc3C2(C)C)C(C)(C)c2cc(S(=O)(=O)[O-])ccc21 (stereo not shown) [fATP, 2-[DY-547P1]-AHT-ATP] ?
(A) 0.9

(Q) COCC[N+]1=C(C=CC=C2N(CCCCCC(=O)NCCCCCCSc3nc(N)c4ncn(C5OC(COP(=O)(O)CP(=O)(O)OP(=O)(O)O)C(O)C5O)c4n3)c3ccc(S(=O)(=O)O)cc3C2(C)C)C(C)(C)c2cc(S(=O)(=O)[O-])ccc21 (stereo not drawn) [α,βMe-fATP, 2-[DY-547P1]-AHT-α,βMe-ATP] , same question.
(A) 0.1

a. Nc1ncnc2c1ncn2[C@@H]1O[C@H](COP(=O)(O)CP(=O)(O)OP(=O)(O)O)[C@@H](O)[C@H]1O [α,βMe-ATP, αβmethylene-ATP]
b. Nc1ncnc2c1ncn2[C@@H]1O[C@H](COP(=O)(O)OP(=O)(O)OP(=O)(O)O)[C@@H](O)[C@H]1O [ATP]
(Q) Lab note: record which item had the higher Effect (Fold in ATP Potency), a or b . I would appreciate it if you answered with the label of your choice.
(A) b

# credit: paper PMC11352409
